# Target or test system: GCase (Homo sapiens)
# Construct: endogenous in cells; host or cells: HeLa cells
# Assay procedure: activation of GCase in a live cell PFB assay in HELA cells
# Format: cell-based
# Test conditions: EC50 given as range classes
EC50 listing for selected molecules.

// known answers, use as guide
[
  {
    "Molecule": "FC(F)Cn1ncc2ncc(N3CCC4(CCN(c5ccc(C(F)(F)F)cn5)CC4)CC3)nc21 [Cmpd 810]",
    "Result": "10 to 50 µM"
  },
  {
    "Molecule": "FC(F)(F)c1cc(N2CC3(CCN(c4nccc(-c5nncs5)n4)C3)C2)ccn1 [Cmpd 986]",
    "Result": "< 10 µM"
  }
]

Problem: I would be grateful if you could share the reported EC50 for FC(F)Cn1ncc2ncc(N3CCC4(CCN(c5cncc(C(F)(F)F)c5)CC4)CC3)nc21 [Cmpd 808] .
Solution: 10 to 50 µM

====

# Target or test system: GCase (Homo sapiens)
# Construct: endogenous in cells; host or cells: HeLa cells
# Sequence (P04062 40-536): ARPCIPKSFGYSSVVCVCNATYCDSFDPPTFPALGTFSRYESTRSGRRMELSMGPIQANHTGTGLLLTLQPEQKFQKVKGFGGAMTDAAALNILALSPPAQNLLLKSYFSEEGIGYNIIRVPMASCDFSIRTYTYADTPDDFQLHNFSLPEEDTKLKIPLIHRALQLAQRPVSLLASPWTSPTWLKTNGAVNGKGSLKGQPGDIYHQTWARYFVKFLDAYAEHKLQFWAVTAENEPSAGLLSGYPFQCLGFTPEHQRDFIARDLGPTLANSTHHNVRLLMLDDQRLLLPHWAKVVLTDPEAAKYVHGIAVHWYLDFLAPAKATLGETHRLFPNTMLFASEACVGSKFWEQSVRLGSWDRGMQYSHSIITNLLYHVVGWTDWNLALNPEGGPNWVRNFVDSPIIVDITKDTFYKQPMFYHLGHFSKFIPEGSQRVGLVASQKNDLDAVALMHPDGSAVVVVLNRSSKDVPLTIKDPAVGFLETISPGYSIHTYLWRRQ
# Assay procedure: activation of GCase in a live cell PFB assay in HELA cells
# Format: cell-based
# Test conditions: activation of GCase, EC50 ranges
pEC50: −log10 of the molar value.
Outcome measure: pEC50

// known answers, use as guide
[
  {
    "Molecule": "Fc1cc(F)cc(OC2CC3(CCCN(c4cnc5cnn(CC(F)(F)F)c5n4)C3)C2)c1 (stereo not shown) [Compound 33]",
    "pEC50": "4.30 to 5.00"
  },
  {
    "Molecule": "FC(F)Cn1ncc2ncc(N3CCC4(CCN(c5ccc(C(F)(F)F)nc5)C4)C(F)(F)C3)nc21 (stereo not shown) [Cmpd 266]",
    "pEC50": "> 5.00"
  },
  {
    "Molecule": "FC(F)Cn1ncc2ncc(N3CC4(CC(COc5cc(C(F)(F)F)ccn5)C4)C3)nc21 [Compound 132]",
    "pEC50": "4.30 to 5.00"
  },
  {
    "Molecule": "FC(F)Cn1ncc2ncc(N3CCC4(CCCN(c5cccc(C(F)(F)F)n5)C4)C3)nc21 (stereo not shown) [Compound 36]",
    "pEC50": "4.30 to 5.00"
  },
  {
    "Molecule": "O=C1CC2(CCN(c3ccc(C(F)(F)F)nc3)CC2)CN1c1cnc2cnn(CC(F)F)c2n1 [Compound 110]",
    "pEC50": "4.30 to 5.00"
  },
  {
    "Molecule": "FC(F)Cn1ncc2ncc(N3CCC4(CCN(c5ccnc(C(F)(F)F)n5)C4)C3)nc21 (stereo not shown) [Cmpd 484]",
    "pEC50": "> 5.00"
  },
  {
    "Molecule": "CCCn1c(N2CCC3(CCN(c4cc(C(F)(F)F)nc(C)n4)C3)CC2)nc2c(cnn2CC(F)F)c1=O [Cmpd 1106]",
    "pEC50": "> 5.00"
  },
  {
    "Molecule": "Cc1nc(N2CC3(CCN(c4ncc5c(C)nn(C6COC6)c5n4)C3)C2)cc(C(F)(F)F)n1 [Cmpd 504]",
    "pEC50": "4.30 to 5.00"
  }
]

Problem: I would be grateful if you could share the reported pEC50 for O=C1N(c2ccc(C(F)(F)F)nc2)CCC12CCN(c1cnc3cnn(CC(F)F)c3n1)CC2 [Cmpd 673] .
Solution: > 5.00
